Biological target: UniProt P10586
Sequence (P10586 30-1907, species assumed): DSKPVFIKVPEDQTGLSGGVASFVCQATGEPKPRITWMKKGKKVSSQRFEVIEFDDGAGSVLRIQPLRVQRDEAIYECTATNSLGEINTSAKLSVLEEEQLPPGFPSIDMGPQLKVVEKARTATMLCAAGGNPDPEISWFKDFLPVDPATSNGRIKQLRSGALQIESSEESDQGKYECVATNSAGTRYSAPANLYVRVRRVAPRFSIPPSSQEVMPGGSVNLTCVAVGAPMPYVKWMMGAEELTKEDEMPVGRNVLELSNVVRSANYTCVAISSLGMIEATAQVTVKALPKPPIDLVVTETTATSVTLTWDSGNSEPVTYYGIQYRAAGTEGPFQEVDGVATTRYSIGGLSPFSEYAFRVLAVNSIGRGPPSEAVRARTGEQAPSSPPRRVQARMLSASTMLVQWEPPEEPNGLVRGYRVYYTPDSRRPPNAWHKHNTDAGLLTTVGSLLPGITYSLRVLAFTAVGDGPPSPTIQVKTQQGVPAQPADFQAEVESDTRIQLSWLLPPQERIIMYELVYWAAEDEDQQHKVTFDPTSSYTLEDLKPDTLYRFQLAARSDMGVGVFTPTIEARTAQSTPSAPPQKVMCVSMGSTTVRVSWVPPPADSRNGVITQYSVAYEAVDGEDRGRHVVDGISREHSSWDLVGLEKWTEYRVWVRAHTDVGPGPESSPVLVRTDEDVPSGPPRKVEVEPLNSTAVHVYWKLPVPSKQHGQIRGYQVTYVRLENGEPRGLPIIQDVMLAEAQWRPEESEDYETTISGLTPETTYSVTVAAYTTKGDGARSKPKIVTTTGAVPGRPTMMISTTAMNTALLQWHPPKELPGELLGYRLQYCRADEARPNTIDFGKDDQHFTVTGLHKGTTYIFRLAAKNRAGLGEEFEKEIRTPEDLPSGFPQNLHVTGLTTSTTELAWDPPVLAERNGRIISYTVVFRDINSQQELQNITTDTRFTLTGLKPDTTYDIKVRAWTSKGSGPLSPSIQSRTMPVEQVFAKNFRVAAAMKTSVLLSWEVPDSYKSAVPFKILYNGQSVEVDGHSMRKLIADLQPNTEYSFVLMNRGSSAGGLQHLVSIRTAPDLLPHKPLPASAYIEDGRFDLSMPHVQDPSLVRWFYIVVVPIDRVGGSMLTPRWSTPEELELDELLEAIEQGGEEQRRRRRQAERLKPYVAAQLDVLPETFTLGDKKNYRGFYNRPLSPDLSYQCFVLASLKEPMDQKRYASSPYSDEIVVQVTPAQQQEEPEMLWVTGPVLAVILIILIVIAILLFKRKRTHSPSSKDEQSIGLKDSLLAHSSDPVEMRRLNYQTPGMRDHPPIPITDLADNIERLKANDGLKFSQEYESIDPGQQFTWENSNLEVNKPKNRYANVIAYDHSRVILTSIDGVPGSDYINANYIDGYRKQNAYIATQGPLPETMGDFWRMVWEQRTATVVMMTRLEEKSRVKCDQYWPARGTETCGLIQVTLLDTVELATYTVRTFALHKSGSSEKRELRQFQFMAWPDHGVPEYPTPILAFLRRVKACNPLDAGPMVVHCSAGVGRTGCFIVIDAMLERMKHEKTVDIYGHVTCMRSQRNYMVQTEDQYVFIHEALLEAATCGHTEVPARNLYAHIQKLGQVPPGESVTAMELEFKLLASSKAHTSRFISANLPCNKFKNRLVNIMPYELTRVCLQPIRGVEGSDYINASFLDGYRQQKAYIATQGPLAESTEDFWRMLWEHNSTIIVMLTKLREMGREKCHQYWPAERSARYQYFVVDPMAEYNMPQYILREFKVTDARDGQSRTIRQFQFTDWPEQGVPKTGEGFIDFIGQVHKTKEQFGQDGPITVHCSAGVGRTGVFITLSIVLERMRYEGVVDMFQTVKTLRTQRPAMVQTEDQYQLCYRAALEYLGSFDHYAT
Experiment: pNPP hydrolysis by recombinant PTPRF phosphatase
Settings: PTPRF IC50, Table 4; mean (SEM) of three independent experiments; * = instability, no valid triplicate
Attribute Measured: IC50 (µM)

INSERT INTO assay_data (molecule, attribute_measured, unit_spec, readout_value) VALUES
  ('COc1c(OCc2ccc(Br)cc2)cc2c(c1C=O)CC(O)OC2=O (stereo not drawn)', 'IC50', 'µM', 3.82),
  ('COc1c(OCC2CCC2)cc2c(c1C=O)CC(O)OC2=O (stereo not drawn)', 'IC50', 'µM', 3.03),
  ('CCCCOc1cc2c(c(C=O)c1OC)CC(O)OC2=O (stereo not drawn) [Compound 1, reference compound]', 'IC50', 'µM', 3.95),
  ('COc1c(OCC2CCCCCC2)cc2c(c1C=O)CC(O)OC2=O (stereo not drawn)', 'IC50', 'µM', 1.16),
  ('COc1c(OCCC(C)C)cc2c(c1C=O)CC(O)OC2=O (stereo not drawn)', 'IC50', 'µM', 3.87),
  ('COc1c(OCc2ccccc2)cc2c(c1C=O)CC(O)OC2=O (stereo not drawn)', 'IC50', 'µM', 3.62),
  ('COc1c(OCc2ccc(C)cc2)cc2c(c1C=O)CC(O)OC2=O (stereo not drawn)', 'IC50', 'µM', 6.57),
  ('COc1c(OCc2ccc(C)s2)cc2c(c1C=O)CC(O)OC2=O (stereo not drawn)', 'IC50', 'µM', 3.5),
  ('COc1c(OCCCc2ccccc2)cc2c(c1C=O)CC(O)OC2=O (stereo not drawn)', 'IC50', 'µM', 4.41);
